- Read-out: xenobiotic metabolism (CYP1A1), CYP1A1 (gene 1543)
- Test: CLD_CYP1A1_6hr: CellzDirect (CLD) Gene Expression Assay for xenobiotic metabolism (CYP1A1) at 6 hours (AID 2283661);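 on AC50: potency for transcript induction above DMSO vehicle baseline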
Inconclusive results are not listed. The source made the active and inactive calls. How the source made its calls: active means hit-call score of the fitted dose curve at least 0.9, where 1 is the maximum; inconclusive means response in the unintended direction; inactive means score below 0.9.
Readout: AC50

1) CON=C(C(=O)OC)c1ccccc1CON=C(C)c1cccc(C(F)(F)F)c1 = inactive
2) CCOP(=S)(Oc1cnc(C(C)(C)C)nc1)OC(C)C (stereo not given) = 2240 nM (active)
3) CNc1cnn(-c2cccc(C(F)(F)F)c2)c(=O)c1Cl = 3970 nM (active)
4) CCCOCC(=Nc1ccc(Cl)cc1C(F)(F)F)n1ccnc1 = 1900 nM (active)
5) Nc1nc(N)nc(NC2CC2)n1 = inactive
6) COP(=O)(OC)OC(Br)C(Cl)(Cl)Br (stereo not given) = inactive
7) COP(=O)(NC(C)=O)SC (stereo not given) = inactive
8) FC(F)C(F)(F)OCC(Cn1cncn1)c1ccc(Cl)cc1Cl (stereo not given) = 2470 nM (active)
9) CC(C)N(C(=O)SCC(Cl)=C(Cl)Cl)C(C)C = inactive
10) CCC(CC)Nc1c([N+](=O)[O-])cc(C)c(C)c1[N+](=O)[O-] = inactive
11) CCOP(=O)(OCC)Oc1cc(C)nc(C(C)C)n1 = inactive
12) CCCCN(CC)c1c([N+](=O)[O-])cc(C(F)(F)F)cc1[N+](=O)[O-] = inactive
13) CNC(=O)Oc1cccc2c1OC(C)(C)O2 = 2940 nM (active)
14) CCOP(=O)(NC(C)C)Oc1ccc(SC)c(C)c1 (stereo not given) = 2720 nM (active)
15) CCc1cnc(C2=NC(C)(C(C)C)C(=O)N2)c(C(=O)O)c1 (stereo not given) = inactive
16) Cc1ccn2nc(S(=O)(=O)Nc3c(F)cccc3F)nc2n1 = inactive
17) CC(C)[C@H](C(=O)O[C@H](C#N)c1cccc(Oc2ccccc2)c1)c1ccc(Cl)cc1 = inactive
18) CCOC(=O)CC(SP(=O)(OC)OC)C(=O)OCC (stereo not given) = inactive
19) Nc1c(Cl)cc([N+](=O)[O-])cc1Cl = 34500 nM (active)
20) CCCCOC(=O)[C@@H](C)Oc1ccc(Oc2ccc(C#N)cc2F)cc1 = inactive
21) C#CCC1=C(C)C(OC(=O)C2C(C=C(C)C)C2(C)C)CC1=O (stereo not given) = inactive
22) CCCCSP(=O)(SCCCC)SCCCC = 2380 nM (active)
23) CCOC(=O)COc1cc(-c2nn(C)c(OC(F)F)c2Cl)c(F)cc1Cl = inactive
24) CCCCOC(=O)c1ccccc1C(=O)O = inactive
25) CC(C)=CC1C(C(=O)OCN2C(=O)C3=C(CCCC3)C2=O)C1(C)C (stereo not given) = inactive

###

- Experimental target: Retinoic acid receptor alpha (Homo sapiens) (UniProt P10276)
- Sequence (P10276 whole entry, looked up): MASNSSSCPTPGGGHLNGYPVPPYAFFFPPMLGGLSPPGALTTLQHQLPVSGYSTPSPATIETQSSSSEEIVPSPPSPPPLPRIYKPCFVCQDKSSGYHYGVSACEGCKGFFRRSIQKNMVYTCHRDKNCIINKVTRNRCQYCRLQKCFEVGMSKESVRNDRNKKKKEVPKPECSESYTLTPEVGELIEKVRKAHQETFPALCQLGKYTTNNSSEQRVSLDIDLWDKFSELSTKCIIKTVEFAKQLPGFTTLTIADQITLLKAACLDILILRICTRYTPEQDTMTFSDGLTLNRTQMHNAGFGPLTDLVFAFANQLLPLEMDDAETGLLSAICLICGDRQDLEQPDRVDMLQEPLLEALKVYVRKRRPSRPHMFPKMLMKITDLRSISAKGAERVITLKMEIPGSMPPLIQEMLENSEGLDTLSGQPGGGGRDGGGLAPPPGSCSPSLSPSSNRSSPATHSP
- Test: ATG_DR5_RAR_CIS: Attagene CIS-FACTORIAL HepG2 Assay for human Retinoic Acid Receptor Alpha (RARE), DR5 submotif (AID 2282934)
- Experimental context: HepG2 Attagene cis-factorial RARE DR5 reporter, mRNA; actives raise or lower the signal
Activity calls are given as the source filed them. The calls were made as follows: active = hit-call score of the fitted dose curve at least 0.9, where 1 is the maximum; inactive = score below 0.9.
Outcomes: true = active, false = inactive

1) CC(C)N(C(=O)SCC(Cl)=C(Cl)Cl)C(C)C = true
2) CC(C1CC1)C(O)(Cn1cncn1)c1ccc(Cl)cc1 (stereo not given) = false
3) CN1COCN(Cc2cnc(Cl)s2)C1=N[N+](=O)[O-] = false
4) CCOC(=O)CC(SP(=O)(OC)OC)C(=O)OCC (stereo not given) = false
5) CCCSP(=O)(OCC)SCCC = false
6) CON=C(C(=O)OC)c1ccccc1CON=C(C)c1cccc(C(F)(F)F)c1 = false
7) CCOP(=O)(NC(C)C)Oc1ccc(SC)c(C)c1 (stereo not given) = true
8) Cc1ccn2nc(S(=O)(=O)Nc3c(F)cccc3F)nc2n1 = false
9) CCOP(=O)(SC(C)CC)N1CCSC1=O (stereo not given) = false
10) C#CCC1=C(C)C(OC(=O)C2C(C=C(C)C)C2(C)C)CC1=O (stereo not given) = true
11) CN(C)NC(=O)CCC(=O)O = false
12) CCOP(=S)(Oc1cnc(C(C)(C)C)nc1)OC(C)C (stereo not given) = true
13) CCc1cnc(C2=NC(C)(C(C)C)C(=O)N2)c(C(=O)O)c1 (stereo not given) = false
14) C=C(C)[C@H]1Cc2c(ccc3c2O[C@@H]2COc4cc(OC)c(OC)cc4[C@@H]2C3=O)O1 = true
15) COP(=O)(OC)C(O)C(Cl)(Cl)Cl (stereo not given) = false
16) CNC(=O)ON=C(SC)C(=O)N(C)C = false
17) N#CSCSC#N = false
18) COc1ccc(C(=CC(=O)N2CCOCC2)c2ccc(Cl)cc2)cc1OC = false
19) Cc1cc(C2CC2)nc(Nc2ccccc2)n1 = true
20) CSc1nc(NC(C)C)nc(NC(C)C)n1 = true

###

- Test: ATG_GLI_CIS: Attagene CIS-FACTORIAL HepG2 Assay for human Zinc Finger Protein GLI1 (AID 2282945)
- Experimental context: HepG2, Attagene cis-factorial reporter mRNA, GLI element; actives raise or lower the signal
Active and inactive are the calls of the source. How the source made its calls: active means hit-call score of the fitted dose curve at least 0.9, where 1 is the maximum; inactive means score below 0.9.
Readout: outcome

1. CCCSP(=O)(OCC)SCCC = inactive
2. N#CSCSC#N = inactive
3. COP(=O)(OC)C(O)C(Cl)(Cl)Cl (stereo not given) = inactive
4. CCCCOC(=O)[C@@H](C)Oc1ccc(Oc2ccc(C#N)cc2F)cc1 = inactive
5. CC[C@H](C)[C@H]1O[C@]2(C=C[C@@H]1C)C[C@@H]1C[C@@H](C/C=C(\C)[C@@H](O[C@H]3C[C@H](OC)[C@@H](O[C@H]4C[C@H](OC)[C@@H](NC)[C@H](C)O4)[C@H](C)O3)[C@@H](C)/C=C/C=C3\CO[C@@H]4[C@H](O)C(C)=C[C@@H](C(=O)O1)[C@]34O)O2 = inactive
6. CC(C)=CC1C(C(=O)OCN2C(=O)C3=C(CCCC3)C2=O)C1(C)C (stereo not given) = inactive
7. CCCOCC(=Nc1ccc(Cl)cc1C(F)(F)F)n1ccnc1 = inactive
8. CN1COCN(Cc2cnc(Cl)s2)C1=N[N+](=O)[O-] = inactive
9. CC(COc1ccc(Oc2ccccc2)cc1)Oc1ccccn1 (stereo not given) = inactive
10. CCC(=NOC/C=C/Cl)C1=C(O)CC(C2CCOCC2)CC1=O (stereo not given) = inactive

###

- Test: ATG_VDRE_CIS: Attagene CIS-FACTORIAL HepG2 Assay for human Vitamin D Receptor Element (VDRE) (AID 2282968)
- Experimental context: HepG2 VDRE cis-reporter transcription, actives raise or lower the signal
Activity calls are given as the source filed them. The calls were made as follows: active = hit-call score of the fitted dose curve at least 0.9, where 1 is the maximum; inactive = score below 0.9.
Outcomes: 1 for active, 0 for inactive

1) CCCCOC(=O)[C@@H](C)Oc1ccc(Oc2ccc(C#N)cc2F)cc1 = 0
2) CCC(CC)Nc1c([N+](=O)[O-])cc(C)c(C)c1[N+](=O)[O-] = 1
3) CN(C)NC(=O)CCC(=O)O = 0
4) CN(C)C(=O)Nc1cccc(C(F)(F)F)c1 = 0
5) COc1cccc(C(=O)NN(C(=O)c2cc(C)cc(C)c2)C(C)(C)C)c1C = 1
6) S=C1NCCN1 = 0
7) N#CSCSC#N = 0
8) CCOP(=S)(OCC)OC(Cl)C(Cl)(Cl)Cl (stereo not drawn) = 1
9) Cc1cc(C2CC2)nc(Nc2ccccc2)n1 = 1
10) CC1=NNC(=O)N(/N=C/c2cccnc2)C1 = 0
11) CCc1cccc(C)c1N(C(=O)CCl)C(C)COC (stereo not drawn) = 1
12) CC1(C(=O)Nc2ccc(O)c(Cl)c2Cl)CCCCC1 = 1
13) O=[N+]([O-])c1cc(C(F)(F)F)c(Cl)c([N+](=O)[O-])c1Nc1ncc(C(F)(F)F)cc1Cl = 0

###

- Test: UKN2_HCS_IMR90_neural_migration: University of Konstanz (UKN) Leist Lab Neural Crest Cell Migration Assay in human induced IMR90 Pluripotent Stem Cells (UKN2) (AID 2284204)
- Experimental context: actives raise or lower the signal
Calls of active or inactive are those of the source. Rule for the calls: active = hit-call score of the fitted dose curve at least 0.9, where 1 is the maximum; inactive = score below 0.9.
Readout: AC50

1. CCOP(=O)(NC(C)C)Oc1ccc(SC)c(C)c1 (stereo not given) = inactive
2. CCOC(=O)CC(SP(=O)(OC)OC)C(=O)OCC (stereo not given) = inactive
3. CON=C(C(=O)OC)c1ccccc1CON=C(C)c1cccc(C(F)(F)F)c1 = 15.2 µM (active)
4. CCOP(=S)(Oc1cnc(C(C)(C)C)nc1)OC(C)C (stereo not given) = inactive
5. CCOP(=O)(OCC)Oc1cc(C)nc(C(C)C)n1 = inactive
6. CN(C)[C@@H]1C(=O)C(C(N)=O)=C(O)[C@@]2(O)C(=O)C3=C(O)c4c(O)cccc4[C@@](C)(O)[C@H]3[C@H](O)[C@@H]12 = 116 µM (active)
7. CCOP(=S)(OCC)OC(Cl)C(Cl)(Cl)Cl (stereo not given) = inactive
8. CCCSP(=O)(OCC)SCCC = inactive
9. CC(=NC#N)N(C)Cc1ccc(Cl)nc1 = inactive
10. COP(=O)(OC)OC(Br)C(Cl)(Cl)Br (stereo not given) = 25.4 µM (active)
